target: Cytochrome P450 2C9 (Homo sapiens) (UniProt P11712); test: blockers of cytochrome P450 2C9 activity – biochemical, luminescence, ADME assay, primary screen (AID 777); settings: CYP2C9 Supersomes, luciferin-H conversion, at 5 µM, active compounds read high
Sequence (P11712 whole entry, looked up): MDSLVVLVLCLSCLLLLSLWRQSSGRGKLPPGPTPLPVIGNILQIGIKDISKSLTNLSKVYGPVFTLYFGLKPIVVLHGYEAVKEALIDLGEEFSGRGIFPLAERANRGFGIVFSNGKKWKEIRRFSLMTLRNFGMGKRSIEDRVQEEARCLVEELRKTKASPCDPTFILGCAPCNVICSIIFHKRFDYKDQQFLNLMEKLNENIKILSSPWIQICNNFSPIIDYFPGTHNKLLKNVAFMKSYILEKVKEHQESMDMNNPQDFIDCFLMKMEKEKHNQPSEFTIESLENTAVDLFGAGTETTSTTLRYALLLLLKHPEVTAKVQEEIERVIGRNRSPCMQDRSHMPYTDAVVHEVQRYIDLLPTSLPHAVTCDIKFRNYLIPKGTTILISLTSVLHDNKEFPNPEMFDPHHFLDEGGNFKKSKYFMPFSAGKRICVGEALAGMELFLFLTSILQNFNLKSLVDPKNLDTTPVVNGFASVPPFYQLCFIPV
Among all 96,000 compounds or so, about 19,000 (20%) were called active. Not all results are given here.
Class (by inhibition) -- class A (below 20%), class B (20% to below 50%), class C (50% or more)

>>> label("Cc1ccc(CN2C(=O)CCC2C(=O)NCCCN2CCCCC2C)cc1 (stereo not given)")
"class A"
>>> label("COC(=O)C1=C(C)OC(N)=C(C#N)C1c1cc(OC)ccc1OC (stereo not given)")
"class B"
>>> label("O=c1c(F)cn(C2CCCO2)c(=O)n1Cc1ccccc1Cl (stereo not given)")
"class A"
>>> label("COc1ccc(N2C(=O)CCC(C(=O)N(C)C3CCCCC3)C2c2ccc(OC)c(OC)c2)cc1 (stereo not given)")
"class A"
>>> label("N#CC1=C(SCc2ccc(C#N)cc2)N=C(N)C(c2nc(-c3ccccc3)cs2)C12CCCCC2 (stereo not given)")
"class C"

QUERY: Which inhibition band matches Cc1ccc(C2(C(F)(F)F)N=C3Sc4cc(C)cc(C)c4N3C(=O)N2)cc1 (stereo not given) ?
RESULT: class C

QUERY: Next compound up: CCCn1c(SCC(=O)N2CCc3ccccc32)nnc1-c1ccncc1
RESULT: class B

QUERY: Next compound up: COc1ccc(-n2c(C)nc3c(cnn3-c3ccccc3)c2=O)cc1
RESULT: class A

QUERY: Next compound up: CCc1ccc2oc(=O)cc(CN3CCCCC3C)c2c1 (stereo not given)
RESULT: class C

----------
target: Cytochrome P450 2C9 (Homo sapiens) (UniProt P11712); assay: blockers of cytochrome P450 2C9 activity – biochemical, luminescence, ADME assay, primary screen (AID 777); conditions: CYP2C9 Supersomes, luciferin-H conversion, at 5 µM, active compounds read high
Hit rate of the full screen: of about 96,000 compounds, about 19,000 (20%) were called active. Not all results are given here.
As shown below, each of these compounds has a reported inhibition value.
A number alone suffices; assume %.

>>> observed_result("C=CCOC(=O)C1=C(C)NC(C)=C(C(=O)OCC=C)C1c1cccs1")
96.8
>>> observed_result("O=C(CSc1nnc(-c2ccccc2)o1)N1CCOCC1")
-9.8
>>> observed_result("c1ccc(-c2cc(-c3nnc4sc(-c5ccccn5)nn34)[nH]n2)cc1")
-2.3
>>> observed_result("Cc1ccnc(N2CCCC(C(=O)Nc3cc(F)ccc3C)C2)n1 (stereo unspecified)")
90.4
>>> observed_result("O=C(Nc1ccc2c(c1)OCCO2)C1CCCN(c2ncccn2)C1 (stereo unspecified)")
-3.8

Shifting focus to the compound that follows.
QUERY: Would you mind telling me what inhibition value was observed for Cc1ccc(-n2nc3cc(Cl)c(NC(=O)c4ccco4)cc3n2)cc1 ?
RESULT: 15.7

----------
biological target: Cytochrome P450 2C9 (Homo sapiens); test: blockers of cytochrome P450 2C9 activity – biochemical, luminescence, ADME assay, primary screen (AID 777); details: CYP2C9 Supersomes, luciferin-H conversion, at 5 µM, active compounds read high
Among all 96,000 compounds or so, about 19,000 (20%) were called active. These entries were drawn from the full list.
Measured Quantity: inhibition (%)
A number alone suffices; assume %.

Field: example entries. Status: answers known.
>>> observed_result("Cc1ccc(-c2nn(C(C)(C)C)c3ncnc(N)c23)cc1")
25.5
>>> observed_result("COc1cc(/C=C2\\SC(=S)N(Nc3ncc(C(F)(F)F)cc3Cl)C2=O)cc(OC)c1OC")
4.4
>>> observed_result("CC(=O)c1cnc(SCCN2C(=O)c3ccccc3C2=O)nc1C")
13.5
>>> observed_result("NC(=NC(=O)c1ccccc1)N1CCOCC1")
4.1

QUERY: Would you mind telling me what inhibition value was observed for C/C=C/C(=O)OCC(=O)Nc1ccc(F)cc1Cl ?
RESULT: 22.2

QUERY: Next molecule up: CCCc1nc(N)nc2c1C(=O)CC(C)(C)C2
RESULT: -35.3
